pKd reference
- measurement.target: T1, cynomolgus uPAR (recombinant) (cynomolgus monkey, UniProt Q9GK78 23-303, limits assumed)
- T1 construct: also called cyno uPAR; AF647-cyno uPAR
- T1 sequence (looked up): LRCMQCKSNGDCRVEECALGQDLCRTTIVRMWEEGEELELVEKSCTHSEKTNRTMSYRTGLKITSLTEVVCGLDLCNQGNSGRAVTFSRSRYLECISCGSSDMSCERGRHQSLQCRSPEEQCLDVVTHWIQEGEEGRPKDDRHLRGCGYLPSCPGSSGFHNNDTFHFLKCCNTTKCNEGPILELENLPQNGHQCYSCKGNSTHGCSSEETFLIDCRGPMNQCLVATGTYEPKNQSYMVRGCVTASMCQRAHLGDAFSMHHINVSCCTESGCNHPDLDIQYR
- protocol.summary: BLI (Octet HTX)
The scale used: pKd is minus the common logarithm of the concentration in molar units.

So what's the measured pKd for this one? 3159 HC1 + LC3 (humanized) (antibody, V domains shown, detected with anti-human Fc antibody) VH: QVTLRESGPALVKPTQTLTLTCTLSGFSLSTSGMGVSWIRQPPGKALEWLAHIYWDDDKRYSTSLKTRLTISKDASKDQVVLTMTNMDTVDTATYYCGRRVRNYFSGTSYWYFDVWGTGTLVTVSS VL: DIVMTQSPLSLPVTPGEPASISCRSSQNILHRTGNTYLDWYLQKPGQSPQLLIYKVSNRFSGVPDRFSGSGSGTDFTLKISRVEAEDVGVYYCFQGSYVPFTFGQGTKLEIK
6.79

New cases:
May I ask what pKd has been recorded for Antibody 11857 (antibody, human IgG1, V domains shown) VH: EVQLRQSGPELVKPGASVKISCKASGYTFTDYYMNWVKQSHEKSLEWIGNINPNNGGTDYNQKFKGKATLTVDKSSSTAYMELRSLTSEDSAVYYCARSYGSRFPYWGLGTLVTVSA VL: DIQMTQTTSSLSASLGDRVTISCRASQDITNYLSWYQQKPDGTVKLLIFYTAVLQSGFPLRFSGSGSGADYSLTISNLEQEDFATYFCQQGHTLPWTFGGGTKLEIK ?
8.07

Query (binder): 3159 HC2 + LC3 (humanized) (antibody, V domains shown, detected with anti-human Fc antibody) VH: QVTLKESGPVLVKPTETLTLTCTVSGFSLSTSGMGVSWIRQPPGKGLEWLAHIYWDDDKRYSPSLKSRLTISKDASKDQVVLTMTNMDTVDTATYYCGRRVRNYFSGTSYWYFDVWGTGTLVTVSS VL: DIVMTQSPLSLPVTPGEPASISCRSSQNILHRTGNTYLDWYLQKPGQSPQLLIYKVSNRFSGVPDRFSGSGSGTDFTLKISRVEAEDVGVYYCFQGSYVPFTFGQGTKLEIK ; field requested: pKd
6.59

Entry under review: 3159 HC1 + LC1 (humanized) (antibody, V domains shown, detected with anti-human Fc antibody) VH: QVTLRESGPALVKPTQTLTLTCTLSGFSLSTSGMGVSWIRQPPGKALEWLAHIYWDDDKRYSTSLKTRLTISKDASKDQVVLTMTNMDTVDTATYYCGRRVRNYFSGTSYWYFDVWGTGTLVTVSS VL: DIVMTQTPLSLSVTPGQPASISCKSSQNILHRTGNTYLEWYLQKPGQPPQLLIYKVSNRFSGVPDRFSGSGSGTDFTLKISRVEAEDVGVYYCFQGSYVPFTFGQGTKLEIK . Reported pKd?
6.25

Given the binder 11857 HC3 + LC1 (humanized) (antibody, V domains shown, detected with anti-human Fc antibody) VH: EVQLVQSGAEVKKPGASVKVSCKASGYTFTDYYMNWVRQAPGKSLEWMGNINPNNGGTDYNQKFQGRVTLTVDTSISTAYMELSRLRSDDTVVYYCARSYGSRFPYWGLGTLVTVSS VL: DIQMTQSPSSLSASVGDRVTITCRASQDITNYLSWYQQKPGGTVKLLLYYTAVLQSGFPSRFSGSGSGADYTLTISSLQPEDFATYYCQQGHTLPWTFGGGTKVEIK , what is its reported pKd?
7.08
